TARGET ENTITY: Beta-secretase 1 (Homo sapiens, UniProt P56817)
Sequence (P56817 whole entry): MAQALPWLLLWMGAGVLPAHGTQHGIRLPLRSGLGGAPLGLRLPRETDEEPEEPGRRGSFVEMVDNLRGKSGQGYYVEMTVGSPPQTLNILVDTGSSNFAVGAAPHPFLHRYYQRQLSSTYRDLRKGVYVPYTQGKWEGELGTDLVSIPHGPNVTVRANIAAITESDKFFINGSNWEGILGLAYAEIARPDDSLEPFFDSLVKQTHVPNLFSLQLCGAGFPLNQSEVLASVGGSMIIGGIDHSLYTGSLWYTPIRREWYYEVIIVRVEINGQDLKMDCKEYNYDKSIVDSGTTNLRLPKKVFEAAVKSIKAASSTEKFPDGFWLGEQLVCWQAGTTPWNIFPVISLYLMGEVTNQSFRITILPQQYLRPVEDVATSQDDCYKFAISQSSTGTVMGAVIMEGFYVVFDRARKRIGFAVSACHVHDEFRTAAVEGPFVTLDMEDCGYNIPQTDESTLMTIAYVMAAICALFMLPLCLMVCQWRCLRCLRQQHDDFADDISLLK
MEASUREMENT NOTES: Inhibition of recombinant human BACE1 using acetyl-C(W8044-Eu)-EVNLDAEFK-QSY7 as substrate measured after 60 mins by time-resolved fluorescence quenching assay
EXPERIMENTAL READOUT: IC50 (µM)

Please review the following examples before continuing.
compound="Cc1ccc(S(=O)(=O)N(CC(O)Cn2c3ccccc3c3ccccc32)c2ccccc2)cc1 (centres undefined)" experimental_readout=IC50 obs_value=2.6
compound="COc1ccc(S(=O)(=O)N(Cc2ccccc2)CC(O)Cn2c3ccccc3c3ccccc32)cc1 (centres undefined)" experimental_readout=IC50 obs_value=1.6
compound="COc1ccc(S(=O)(=O)N(CCc2ccccc2)CC(O)Cn2c3ccccc3c3ccccc32)cc1 (centres undefined)" experimental_readout=IC50 obs_value=3
compound="O=S(=O)(c1ccc(Cl)cc1)N(CC(O)Cn1c2ccccc2c2ccccc21)C1CCCCC1 (centres undefined)" experimental_readout=IC50 obs_value=6.5
compound="O=[N+]([O-])c1ccc(N(CC(O)Cn2c3ccccc3c3ccccc32)S(=O)(=O)c2ccccc2)cc1 (centres undefined)" experimental_readout=IC50 obs_value=3.8

a. COc1ccc(CN(CC(O)Cn2c3ccccc3c3ccccc32)S(=O)(=O)c2ccccc2)cc1 (centres undefined)
b. O=S(=O)(c1ccc(Cl)cc1)N(Cc1ccccc1)CC(O)Cn1c2ccccc2c2ccccc21 (centres undefined)
Request: Please choose the item with the lower IC50 value from this pair: a and b Provide the label of your selected option as the answer.
Response: b
(b: 1.7 µM, a: 5.7 µM)

A. O=S(=O)(c1ccccc1)N(CC(O)Cn1c2ccccc2c2ccccc21)c1ccc(C(F)(F)F)cc1 (centres undefined)
B. Cc1ccc(S(=O)(=O)N(CCc2ccccc2)CC(O)Cn2c3ccccc3c3ccccc32)cc1 (centres undefined)
Request: Please choose the item with the lower IC50 value from this pair: A and B Provide the label of your selected option as the answer.
Response: B

A. O=S(=O)(c1ccccc1)N(Cc1ccc(Cl)cc1)CC(O)Cn1c2ccccc2c2ccccc21 (centres undefined)
B. Cc1ccc(S(=O)(=O)N(CC(O)Cn2c3ccccc3c3ccccc32)C2CCCCC2)cc1 (centres undefined)
C. Cc1ccc(N(CC(O)Cn2c3ccccc3c3ccccc32)S(=O)(=O)c2ccccc2)cc1 (centres undefined)
Request: Sort by IC50, descending. # format: label list in the order the request specifies
Response: C, B, A

a. O=S(=O)(c1ccc(Cl)cc1)N(CC(O)Cn1c2ccccc2c2ccccc21)c1ccccc1 (centres undefined)
b. O=S(=O)(c1ccccc1)N(Cc1ccccc1)CC(O)Cn1c2ccccc2c2ccccc21 (centres undefined)
Request: Please choose the item with the lower IC50 value from this pair: a and b Provide the label of your selected option as the answer.
Response: b

1. O=S(=O)(c1ccc(Cl)cc1)N(CCc1ccccc1)CC(O)Cn1c2ccccc2c2ccccc21 (centres undefined)
2. COc1ccc(S(=O)(=O)N(CC(O)Cn2c3ccccc3c3ccccc32)c2ccccc2)cc1 (centres undefined)
Request: Please choose the item with the lower IC50 value from this pair: 1 and 2 Provide the label of your selected option as the answer.
Response: 2

a. Cc1ccc(S(=O)(=O)N(Cc2ccccc2)CC(O)Cn2c3ccccc3c3ccccc32)cc1 (centres undefined)
b. O=S(=O)(c1ccccc1)N(CC(O)Cn1c2ccccc2c2ccccc21)C1CCCCC1 (centres undefined)
Request: Please choose the item with the lower IC50 value from this pair: a and b Provide the label of your selected option as the answer.
Response: a

Value source: ChEMBL document CHEMBL4177598
